- Test system: E13 (patient-derived glioblastoma stem cells of classical subtype)
- EXPERIMENT: surviving fraction (nuclei count normalised to DMSO); higher = more cells surviving (less toxic)
- EXPERIMENTAL PARAMETERS: 12.3 nM; exposure time: 72 h
Counter-ions that a name gives are not always drawn.
Please mark Yes if the recorded surviving fraction is equal to or greater than 0.9, and No if it falls below.

Example entries and their recorded answers appear below.
INSERT INTO assay_data (compound, assayed_system, assigned_class) VALUES
  ('CC(C)C[C@H](NC(=O)[C@H](Cc1ccccc1)C[C@@H](O)[C@H](Cc1ccccc1)NC(=O)OC(C)(C)C)C(=O)N[C@@H](Cc1ccccc1)C(N)=O', 'E13', 'Yes'),
  ('O=C1CC[C@@H](C(=O)N2CSC[C@H]2C(=O)O)N1', 'E13', 'Yes'),
  ('CCCCCCCCCCCCCC(=O)O[C@@H]1[C@@H](C)[C@@]2(O)[C@@H](C=C(CO)C[C@]3(O)C(=O)C(C)=C[C@@H]23)[C@@H]2C(C)(C)[C@]12OC(C)=O [Phorbol 12-myristate 13-acetate]', 'E13', 'No'),
  ('COc1cc2c(cc1-c1c(C)noc1C)ncc1[nH]c(=O)n([C@H](C)c3ccccn3)c12', 'E13', 'No'),
  ('OCCN1CCN(CCCN2c3ccccc3Sc3ccc(C(F)(F)F)cc32)CC1 [Fluphenazine dihydrochloride]', 'E13', 'Yes'),
  ('Nc1ncnc2c1c(-c1ccc(Oc3ccccc3)cc1)cn2C1CCCC1', 'E13', 'Yes');

Prompt: I'd appreciate it if you could say whether `CNc1ccc2oc(C[C@H]3O[C@@]4(CC[C@H]3C)O[C@H]([C@H](C)C(=O)c3ccc[nH]3)[C@H](C)C[C@H]4C)nc2c1C(=O)O` has surviving fraction at least equal to 0.9.
Completion: No

Prompt: I'd appreciate it if you could say whether CCCCCC[C@H]1C(=O)O[C@H](C)[C@H](NC(=O)c2cccc(NC=O)c2O)C(=O)O[C@@H](C)[C@@H]1OC(=O)CC(C)C [Antimycin A] has surviving fraction at least equal to 0.9.
Completion: No

Prompt: I'd appreciate it if you could say whether `Cn1ncnc1[C@H]1c2n[nH]c(=O)c3cc(F)cc(c23)N[C@@H]1c1ccc(F)cc1` has surviving fraction at least equal to 0.9.
Completion: No

Prompt: I'd appreciate it if you could say whether `Cc1nc2ccccn2c(=O)c1CCN1CCC(C(=O)c2ccc(F)cc2)CC1` has surviving fraction at least equal to 0.9.
Completion: Yes

----------
Quick reference for surviving fraction among some compounds
- System: E28 (patient-derived glioblastoma stem cells of classical subtype)
- EXPERIMENT: surviving fraction (nuclei count normalised to DMSO); higher = more cells surviving (less toxic)
- EXPERIMENTAL PARAMETERS: 3000 nM; exposure time: 72 h
Structures can show the parent of a compound that is named as a salt.

Prompt: Consider the compound shown here: CC(NCCC(c1ccccc1)c1ccccc1)c1ccccc1 (stereo not given) [Fendiline hydrochloride] What is its recorded surviving fraction?
Completion: 1.04

Prompt: Consider the compound shown here: `O=C(O)c1ccc(-c2c[nH]c3ncc(-c4ccccc4)cc23)cc1C1CCCC1` What is its recorded surviving fraction?
Completion: 0.51

Prompt: Consider the compound shown here: `Oc1ccc(OCc2ccccc2)cc1` What is its recorded surviving fraction?
Completion: 0.875

Prompt: Consider the compound shown here: CC(=O)CC(c1ccc([N+](=O)[O-])cc1)c1c(O)c2ccccc2oc1=O (stereo not given) What is its recorded surviving fraction?
Completion: 0.901

Prompt: Consider the compound shown here: `COC(=O)Nc1nc2cc(C(=O)c3ccccc3)ccc2[nH]1` What is its recorded surviving fraction?
Completion: 0.426

Prompt: Consider the compound shown here: C=CC(=O)Nc1cc(Nc2nccc(-c3cn(C)c4ccccc34)n2)c(OC)cc1N(C)CCN(C)C [Osimertinib mesylate] What is its recorded surviving fraction?
Completion: 0.496

Prompt: Consider the compound shown here: `COc1ccc([C@@H]2CC(=O)c3c(O)cc(O[C@@H]4O[C@H](CO[C@@H]5O[C@@H](C)[C@H](O)[C@@H](O)[C@H]5O)[C@@H](O)[C@H](O)[C@H]4O)cc3O2)cc1O` What is its recorded surviving fraction?
Completion: 0.967

Prompt: Consider the compound shown here: CCCCCCCCCCCCCCCC[N+](C)(C)CCN(Cc1ccc(OC)cc1)c1ncccn1 [Thonzonium bromide] What is its recorded surviving fraction?
Completion: 0.00389

Prompt: Consider the compound shown here: N=c1ccn2c(n1)O[C@H]1[C@H](O)[C@@H](CO)O[C@H]12 [Ancitabine hydrochloride] What is its recorded surviving fraction?
Completion: 0.482

Prompt: Consider the compound shown here: COC(=O)C1=C(C)NC(C)=C(C(=O)OCC(C)C)C1c1ccccc1[N+](=O)[O-] (stereo not given) What is its recorded surviving fraction?
Completion: 0.9

Prompt: Consider the compound shown here: `CC(C)C[C@H](NC(=O)CNC(=O)c1cc(Cl)ccc1Cl)B(O)O` What is its recorded surviving fraction?
Completion: 0.0701

Prompt: Consider the compound shown here: Clc1ccc(C(Cn2ccnc2)OCc2ccsc2Cl)c(Cl)c1 (stereo not given) What is its recorded surviving fraction?
Completion: 0.843

Prompt: Consider the compound shown here: `CCn1cc(-c2ccnc3[nH]c(-c4cccc(CN(C)C)c4)cc23)c(-c2ccc(NC(=O)N(C)C)cc2)n1` What is its recorded surviving fraction?
Completion: 0.397

Prompt: Consider the compound shown here: CN1[C@@H]2CC[C@H]1CC(OC(=O)c1c[nH]c3ccccc13)C2 (stereo not given in full) [3-Tropanyl-indole-3-carboxylate hydrochloride] What is its recorded surviving fraction?
Completion: 0.734

Prompt: Consider the compound shown here: C[C@@H](O[C@H]1OCCN(Cc2n[nH]c(=O)[nH]2)[C@H]1c1ccc(F)cc1)c1cc(C(F)(F)F)cc(C(F)(F)F)c1 [Aprepitant] What is its recorded surviving fraction?
Completion: 0.879

Prompt: Consider the compound shown here: `CCc1c2c(nc3ccc(OC(=O)N4CCC(N5CCCCC5)CC4)cc13)-c1cc3c(c(=O)n1C2)COC(=O)[C@]3(O)CC` What is its recorded surviving fraction?
Completion: 0.302

Prompt: Consider the compound shown here: CCC1=C[C@@H]2CN(C1)Cc1c([nH]c3ccccc13)[C@@](C(=O)OC)(c1cc3c(cc1OC)N(C)[C@H]1[C@@](O)(C(=O)OC)[C@H](OC(C)=O)[C@]4(CC)C=CCN5CC[C@]31[C@@H]54)C2 [Vinorelbine Tartrate] What is its recorded surviving fraction?
Completion: 0.353

Prompt: Consider the compound shown here: `Cn1ncnc1[C@H]1c2n[nH]c(=O)c3cc(F)cc(c23)N[C@@H]1c1ccc(F)cc1` What is its recorded surviving fraction?
Completion: 0.3

Prompt: Consider the compound shown here: `C/C=C1\NC(=O)[C@H]2CSSCC/C=C/[C@H](CC(=O)N[C@H](C(C)C)C(=O)N2)OC(=O)[C@H](C(C)C)NC1=O` What is its recorded surviving fraction?
Completion: 0.0691

Prompt: Consider the compound shown here: CCC[C@@H]1C[C@@H](C(=O)N[C@@H]([C@H]2O[C@H](SC)[C@H](O)[C@@H](O)[C@H]2O)[C@@H](C)O)N(C)C1 [Lincomycin hydrochloride] What is its recorded surviving fraction?
Completion: 1.03

Prompt: Consider the compound shown here: COc1ccc2[nH]c([S+]([O-])Cc3ncc(C)c(OC)c3C)nc2c1 (stereo not given) What is its recorded surviving fraction?
Completion: 1.07

Prompt: Consider the compound shown here: `CC(C)C[C@H](NC(=O)CNC(=O)c1cc(Cl)ccc1Cl)B1OC(=O)C(CC(=O)O)(CC(=O)O)O1` What is its recorded surviving fraction?
Completion: 0.0719

Prompt: Consider the compound shown here: CC1(C(=O)O)C2CCC(O2)C1(C)C(=O)O (stereo not given) What is its recorded surviving fraction?
Completion: 0.771

----------
- System: E31 (patient-derived glioblastoma stem cells of proneural subtype);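 further: cell Painting imaging in 384-well plates, CellProfiler features reduced to at least 20 principal components, Euclidean distance versus same-plate DMSO vehicle wells (0.1% v/v), median over six images per well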
- EXPERIMENT: phenotypic distance (Euclidean, principal components) from DMSO controls (arbitrary units); higher = stronger morphological change
- EXPERIMENTAL PARAMETERS: 333.3 nM; exposure time: 72 h
Quick reference for phenotypic distance among some compounds
Reply briefly: the number, and no unit.

INSERT INTO assay_data (compound, measurement_kind, recorded_result) VALUES
  ('CC[n+]1c(/C=C/C=C2/N(C)c3ccccc3C2(C)C)sc2ccccc21', 'phenotypic distance', 3.28),
  ('COc1nc(C)nc(Cl)c1NC1=NCCN1', 'phenotypic distance', 0.598),
  ('Clc1ccc(C(Cn2ccnc2)OCc2ccsc2Cl)c(Cl)c1 (stereo unspecified)', 'phenotypic distance', 0.715),
  ('CC(=O)O[C@H]1C[C@H](O[C@H]2[C@@H](O)C[C@H](O[C@H]3[C@@H](O)C[C@H](O[C@H]4CC[C@@]5(C)[C@H](CC[C@@H]6[C@@H]5C[C@@H](O)[C@]5(C)[C@@H](C7=CC(=O)OC7)CC[C@]65O)C4)O[C@@H]3C)O[C@@H]2C)O[C@H](C)[C@H]1O[C@@H]1O[C@H](CO)[C@@H](O)[C@H](O)[C@H]1O [Lanatoside C]', 'phenotypic distance', 4.79),
  ('COc1ccc(/C=C\c2cc(OC)c(OC)c(OC)c2)cc1OP(=O)(O)O [Fosbretabulin Disodium]', 'phenotypic distance', 1.6);

Kindly consider the entry below.
Prompt: Consider the compound shown here: C[C@@H](O[C@H]1OCCN(Cc2n[nH]c(=O)[nH]2)[C@H]1c1ccc(F)cc1)c1cc(C(F)(F)F)cc(C(F)(F)F)c1 [Aprepitant] What is its recorded phenotypic distance?
Completion: 1.03

Cited source: the supplement of paper PMC13207355
